The following molecules are shown together with reported Emax values.
target: human mAChR M1 (Homo sapiens); test: mAChR M1 cell-based functional assay: calcium mobilization, positive allosteric modulator mode (increase in EC20 acetylcholine response); conditions: Table 2; human M1; read-out: Human M1 Emax (%)
Sequence (P11229 whole entry): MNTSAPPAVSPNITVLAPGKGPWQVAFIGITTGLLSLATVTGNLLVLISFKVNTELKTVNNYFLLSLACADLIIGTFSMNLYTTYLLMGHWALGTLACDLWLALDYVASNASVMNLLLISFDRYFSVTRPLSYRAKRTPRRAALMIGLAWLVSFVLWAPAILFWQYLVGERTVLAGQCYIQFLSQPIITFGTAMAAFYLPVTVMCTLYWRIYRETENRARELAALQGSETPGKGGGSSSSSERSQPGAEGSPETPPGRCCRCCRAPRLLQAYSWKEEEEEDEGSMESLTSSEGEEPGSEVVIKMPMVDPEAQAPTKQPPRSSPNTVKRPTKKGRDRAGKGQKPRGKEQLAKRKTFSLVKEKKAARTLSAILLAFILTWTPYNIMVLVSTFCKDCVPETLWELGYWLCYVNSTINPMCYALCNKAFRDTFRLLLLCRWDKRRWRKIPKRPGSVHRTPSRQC
The answer is to be given in %; state only the numeric part.

# annotated cases, reported Emax shown
> print(dat)
                                   molecule  numeric.value
1  Cn1ccc2nc(C(=O)NC3CCOC(C)(C)C3)cc(Cc3ccc(-c4cscn4)cc3)c21 (stereo not shown)           70.8
2  Cc1nc(-c2ccc(Cc3cc(C(=O)NC4(C)COC4)nc4ccsc34)cc2)cs1           39.7
3  CO[C@@H]1CCCC[C@H]1NC(=O)c1cc(Cc2ccc(-n3cccn3)cc2)c2sccc2n1           67.6

From here, focus on the item given below.
input: For the molecule shown here, O=C(NC1CC2(COC2)C1)c1cc(Cc2ccc(-c3nccs3)cc2)c2sccc2n1 , give the reported Emax.
output: 84.7

Provenance of the data: patent US11111251B2
